assay.method.text: protein stability index of a GFP-peptide fusion (GPS, HEK-293T) (PSI 1-6); higher = more stable;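 further: 24-mer peptide tiles fused after GFP, lentivirally expressed, FACS-sorted into six equal bins by GFP/DsRed ratio, decoded by Illumina sequencing, PSI is the read-weighted mean bin number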
condition.info: treatment: MLN4924 1 uM, 8 h; c terminus: a fixed tail appended
Threshold check on protein stability index: at or above 3 gives class 1, strictly below gives class 0.

> print(dat)
                 biopolymer.sequence  classification
1   SLNRACHQQNKIKDLQKEQKTLQV [CEP70]         class 1
2    LDDGEIDEIRWKYHSDTTPKIIES [IQUB]         class 1
3   ILIASRDIAAGEELLYDYGDRSKA [KMT5A]         class 1
4  ILKSQKERQCALRVFKARIYTNRY [FBXO39]         class 0
5    QVDGGANFSVDRWERKEGGGGISC [CPOX]         class 1

Task: Confirm if protein stability index reported for the sequence MVESRYALLIVDSATALYRTDYSG [RAD51] is 3 or above.
Output: class 0

Task: Say whether KNVELKFVDSIRRQFEFSVDSFQI [TENT5C] shows protein stability index of 3 or more.
Output: class 0

Task: // inclusive: protein stability index at least 3? input: LIANRSYKVSAASSFFFSGVFVGV [SLC22A15]
Output: class 0

Task: Is protein stability index at least 3? Consider FSKQIVLRGKSIKRAPGEETEKEE [NEUROD6]
Output: class 1

Task: I'd appreciate it if you could say whether WGFVHPRLLSVPELCHHVAEVWVS [RETREG3] has protein stability index at least equal to 3.
Output: class 0
